The reported numbers originate from ChEMBL document CHEMBL1127973.

Biological target: Tubulin (Homo sapiens) (UniProt P68371+Q9H4B7+P0DPH7+P68366+Q13509+Q71U36+P04350+Q3ZCM7+P07437+P68363+Q9BQE3+Q6PEY2+Q13885+Q9BVA1+Q9BUF5)
Test: Binding affinity to microtubules, activity expressed as log 1/ID50 of compound/ID50 of paclitaxel
Format: protein-complex assay
readout: Log 1/ratio
Numbers only.

These recorded examples may help you get a feel for the data.
CC(=O)O[C@H]1C(=O)[C@@]2(C)[C@H]([C@H](OC(=O)c3ccccc3)[C@]3(O)C[C@H](OC(=O)[C@@H](O)[C@H](NC(=O)OC(C)(C)C)c4ccccc4)C(C)=C1C3(C)C)[C@]1(OC(C)=O)CO[C@@H]1C[C@@H]2O | -1.48
CC(=O)O[C@H]1C(=O)[C@@]2(C)[C@H]([C@H](OC(=O)c3ccccc3)[C@]3(O)C[C@H](OC(=O)[C@H](O)[C@@H](NC(=O)c4ccc(C)cc4)c4ccccc4)C(C)=C1C3(C)C)[C@]1(OC(C)=O)CO[C@@H]1C[C@@H]2O | -0.204
CC(=O)O[C@H]1C(=O)[C@@]2(C)[C@H]([C@H](OC(=O)c3ccccc3)[C@]3(O)C[C@H](OC(=O)[C@H](NC(=O)c4ccccc4)[C@@H](O)c4ccccc4)C(C)=C1C3(C)C)[C@]1(OC(C)=O)CO[C@@H]1C[C@@H]2O | -1
CC(=O)O[C@@]12CO[C@@H]1C[C@H](O)[C@@]1(C)C(=O)[C@H](O)C3=C(C)[C@@H](OC(=O)[C@@H](O)[C@@H](N)c4ccccc4)C[C@@](O)([C@@H](OC(=O)c4ccccc4)[C@H]21)C3(C)C | -1.48
CC(=O)O[C@H]1C(=O)[C@@]2(C)[C@H]([C@H](OC(=O)c3ccccc3)[C@]3(O)C[C@H](OC(=O)[C@H](O)[C@@H](NC(=O)c4ccccc4)c4ccc5ccccc5c4)C(C)=C1C3(C)C)[C@]1(OC(C)=O)CO[C@@H]1C[C@@H]2O | -0.851

# map each compound to its Log 1/ratio
1. COc1ccc(C(=O)N[C@@H](c2ccccc2)[C@@H](O)C(=O)O[C@H]2C[C@@]3(O)[C@@H](OC(=O)c4ccccc4)[C@@H]4[C@]5(OC(C)=O)CO[C@@H]5C[C@H](O)[C@@]4(C)C(=O)[C@H](OC(C)=O)C(=C2C)C3(C)C)cc1
2. CC(=O)O[C@@]12CO[C@@H]1C[C@H](O)[C@@]1(C)C(=O)[C@H](O)C3=C(C)[C@@H](OC(=O)[C@H](O)[C@H](NC(=O)c4ccccc4)c4ccccc4)C[C@@](O)([C@@H](OC(=O)c4ccccc4)[C@H]21)C3(C)C

0.222
-0.114

# map each compound to its Log 1/ratio
1. CC(=O)O[C@H]1C(=O)[C@]2(C)[C@@H](OC(=O)[C@H](O)[C@@H](O)[C@H](O)CO)C[C@H]3OC[C@@]3(OC(C)=O)[C@H]2[C@H](OC(=O)c2ccccc2)[C@]2(O)C[C@H](OC(=O)[C@H](O)[C@@H](NC(=O)c3ccccc3)c3ccccc3)C(C)=C1C2(C)C
2. COc1ccc([C@H](NC(=O)c2ccccc2)[C@@H](O)C(=O)O[C@H]2C[C@@]3(O)[C@@H](OC(=O)c4ccccc4)[C@@H]4[C@]5(OC(C)=O)CO[C@@H]5C[C@H](O)[C@@]4(C)C(=O)[C@H](OC(C)=O)C(=C2C)C3(C)C)cc1
3. C/C=C/C(=O)O[C@H]1C[C@@]2(O)[C@@H](OC(=O)c3ccccc3)[C@@H]3[C@]4(OC(C)=O)CO[C@@H]4C[C@H](O)[C@@]3(C)C(=O)[C@H](OC(C)=O)C(=C1C)C2(C)C

1. -0.398
2. 0.301
3. -2
